Ref: ChEMBL document CHEMBL3431459

Assay: SUPPLEMENTARY: Lipophilicity (log D) Determination by high-throughput shake-flask
Assay type: physicochemical
Settings: octanol/water
Quick list: logD per entry.
Response field accepts a number only; no unit should be typed.

// worked examples, logD included
INSERT INTO measurements (record_smiles, parameter, endpoint_result) VALUES
  ('COc1ccc(Cl)cc1S(=O)(=O)N1CCOc2ccc(C(=O)Nc3ccc(C(=O)O)nc3)cc21', 'logD', -0.42),
  ('O=C(COc1ccccc1)N1CCNC[C@@H]1c1nc(-c2ccc3[nH]cnc3c2)no1', 'logD', 1.63),
  ('O=C(COc1ccccc1)N1CCCC[C@@H]1c1noc(-c2cnc3ccccc3n2)n1', 'logD', 3.22);

Ask: Input `CCCN(c1cc(C(=O)Nc2nc(CC(=O)O)cs2)cc2c1OCO2)S(=O)(=O)c1cc(Cl)ccc1OC` , output reported logD.
Result: 2.72

Ask: Note down logD recorded for `CC(=O)Nc1cc(F)cc(-c2noc([C@H]3CCCCN3C(=O)COc3ccccc3)n2)c1`
Result: 3.62

Ask: Tell me measured logD for `O=C(COc1ccccc1)N1CCCC[C@@H]1c1noc(-c2cccc(N3CCCS3(=O)=O)c2)n1` please.
Result: 2.89

Ask: Give recorded logD. `O=C(COc1ccccc1)N1CCCC[C@@H]1c1nc(-c2ccccn2)cs1`
Result: 3.37

Ask: Give the reported value of logD for this record: `COc1ccc(Cl)cc1Cn1cc(C(=O)O)c2ccc(C(=O)Nc3ccccc3)cc21`
Result: 3.13

Ask: Indicate the recorded logD value for this compound: `COc1ccc(Cl)cc1S(=O)(=O)N1CCOc2ncc(C(=O)Nc3ccccc3)cc21`
Result: 3.31

###

Assay: SUPPLEMENTARY: PAMPA permeability assay
Assay type: physicochemical
Conditions: read-out: Permeability
Please note: Papp exactly at 2 ×10⁻⁶ cm/s is Not fulfilled. Only values below 2 ×10⁻⁶ cm/s get Fulfilled.

Worked examples follow.
INSERT INTO measurements (record_smiles, category_label) VALUES
  ('O=C1Cc2cc(-c3noc([C@H]4CCCCN4C(=O)COc4ccccc4)n3)ccc2N1', 'Not fulfilled'),
  ('Cc1cc(C)cc(S(=O)(=O)N2CCOc3ccc(C(=O)Nc4nc(CC(=O)O)cs4)cc32)c1', 'Not fulfilled'),
  ('Cn1cnc(Br)c1-c1noc([C@H]2CCCCN2C(=O)COc2ccccc2)n1', 'Not fulfilled'),
  ('COc1ccc(Cl)cc1Cc1cn(C)c2ccc(C(=O)Nc3ccc(CC(=O)O)cc3)cc12', 'Fulfilled'),
  ('COc1ccc(Cl)cc1S(=O)(=O)c1c[nH]c2ccc(C(=O)Nc3ccccc3)cc12', 'Fulfilled');

Next:
Ask: Please check: Papp for `COc1ccc(Cl)cc1CN1C(=O)COc2ccc(C(=O)Nc3nc(CC(=O)O)cs3)cc21` , strictly under 2 ×10⁻⁶ cm/s or not?
Result: Fulfilled

###

Test: SUPPLEMENTARY: PAMPA permeability assay
Type: physicochemical
Conditions: read-out: Permeability
PARAMETER: Papp (×10⁻⁶ cm/s)
Record the value in ×10⁻⁶ cm/s, omitting the unit from your answer.

INSERT INTO measurements (compound, endpoint_result) VALUES
  ('O=C(Nc1ccc(C(=O)O)c(Cl)c1)c1ccc2c(c1)N(S(=O)(=O)c1cc(Cl)cc(Cl)c1)CC2', 1.89),
  ('COc1ccc(Cl)cc1S(=O)(=O)N1CCOc2c(Cl)cc(C(=O)Nc3ccc(C(=O)O)cc3)cc21', 2.19),
  ('O=C(COc1ccncc1)N1CCCC[C@@H]1c1nnc(-c2cccc(C(F)(F)F)c2)[nH]1', 1.75),
  ('CC(=O)c1ccc(-c2nc([C@H]3CCCCN3C(=O)COc3ccccc3)no2)cc1', 1.54),
  ('COC1CCC(c2nc([C@H]3CCCCN3C(=O)COc3ccccc3)no2)CC1 (stereo not given in full)', 3.5),
  ('COc1ccc(Cl)cc1S(=O)(=O)N1CCc2ccc(C(=O)Nc3nc(CC(=O)O)cs3)cc21', 3.25),
  ('NS(=O)(=O)c1ccc(C#C[C@H]2CCCCN2C(=O)COc2ccccc2)cc1', 4.11),
  ('O=C(O)c1cccc(-c2nc([C@H]3CCCCN3C(=O)COc3ccccc3)cs2)c1', 2.35),
  ('O=C(COc1ccccc1)N1CCCC[C@@H]1c1noc(-c2cnc3ccccc3n2)n1', 4.18);

Ask: Output Papp of `Cn1cc(S(=O)(=O)c2cccc(Cl)c2)c2cc(C(=O)Nc3nc(CC(=O)O)cs3)ccc21`
Result: 0.95

###

Listed here are molecules together with their documented solubility kinetic.
Test: SUPPLEMENTARY: Lyophilisation Solubility Assay (LYSA)
Type: physicochemical
Conditions: read-out: Kinetic_solubility

INSERT INTO assay_data (record_smiles, endpoint_result) VALUES
  ('O=C(COc1ccccc1)N1CCC(n2c(COc3ccccc3)nc3cc(F)ccc32)CC1', '< 1 µg/mL'),
  ('COc1ccc(Cl)cc1Cc1c[nH]c2ccc(C(=O)Nc3nc(CC(=O)O)cs3)cc12', '55 µg/mL'),
  ('NC(=O)c1ccc(-c2csc([C@H]3CCCCN3C(=O)COc3ccccc3)n2)cc1', '43 µg/mL');

Ask: Determine from records and report solubility kinetic for `COc1ccc(Cl)cc1S(=O)(=O)N1CCc2ccc(C(=O)Nc3ccn(CC(=O)O)n3)cc21`
Result: > 526 µg/mL

Ask: Assign solubility kinetic to the following record: `COc1ccc(Cl)cc1S(=O)(=O)N1CCOc2ccc(C(=O)Nc3ccc(C(=O)O)c(Cl)c3)cc21`
Result: > 716 µg/mL

Ask: Could you please provide reported solubility kinetic for `COc1ccc(Cl)cc1S(=O)(=O)N1COc2ccc(C(=O)Nc3ccc(C(=O)O)c(Cl)c3)cc21` ? Thanks!
Result: > 697 µg/mL

###

Experiment: SUPPLEMENTARY: Lyophilisation Solubility Assay (LYSA)
Type: physicochemical
Conditions: read-out: Kinetic_solubility
PARAMETER: solubility kinetic

INSERT INTO measurements (record_smiles, endpoint_result) VALUES
  ('COc1ccc(Cl)cc1S(=O)(=O)c1cn(CSC)c2ccc(C(=O)Nc3ccccc3)cc12', '< 1 µg/mL'),
  ('CC(=O)Nc1cc(F)cc(-c2noc([C@H]3CCCCN3C(=O)COc3ccccc3)n2)c1', '< 1 µg/mL'),
  ('O=C(COc1ccccc1)N1CCCC[C@@H]1c1csc(-c2ccc(C(F)(F)F)nc2)n1', '< 1 µg/mL');

Ask: Supply measured solubility kinetic of `O=C(COc1ccccc1)N1CCCC[C@@H]1c1nc(-c2ccccc2)cs1` in your reply.
Result: < 1 µg/mL

Ask: Provide only the value of recorded solubility kinetic for `COc1ccc(Cl)cc1S(=O)(=O)N(C)c1cccc(C(=O)Nc2nc(CC(=O)O)cs2)c1`
Result: > 549 µg/mL

###

Assay: SUPPLEMENTARY: Lipophilicity (log D) Determination by high-throughput shake-flask
Assay type: physicochemical
Conditions: octanol/water
We begin with a simple list: items and their reported logD.
Give your answer as a number; write no unit.

INSERT INTO measurements (compound, parameter, endpoint_result) VALUES
  ('COc1ccc(C)cc1S(=O)(=O)N1CCCc2ccc(C(=O)Nc3nc(CC(=O)O)cs3)cc21', 'logD', 3.19),
  ('O=C(NCCO)c1cccc(-c2n[nH]c([C@H]3CCCCN3C(=O)COc3ccccc3)n2)c1', 'logD', 1.98),
  ('O=C(COc1ccccc1)N1CCCC[C@@H]1c1nc(-c2cccc(-c3n[nH]c(=O)o3)c2)n[nH]1', 'logD', 2.42),
  ('O=C1Cc2cc(-c3noc(C4C5CC5CN4C(=O)COc4ccccc4)n3)ccc2N1 (stereo unspecified)', 'logD', 2.51),
  ('CS(=O)(=O)c1cccc(-c2nc([C@H]3CCCCN3C(=O)COc3ccccc3)no2)c1', 'logD', 2.39),
  ('CCN(c1cc(C(=O)Nc2nc(CC(=O)O)cs2)cc2c1OCO2)S(=O)(=O)c1cc(Cl)ccc1OC', 'logD', 2.65),
  ('O=C(COc1ccccc1)N1CCCC[C@@H]1c1noc(-c2cc[nH]n2)n1', 'logD', 2.22),
  ('O=C(COc1ccccc1)N1CCCCC1c1cc(-c2ccccc2)n[nH]1 (stereo unspecified)', 'logD', 3.63),
  ('COc1ccc(Cl)cc1S(=O)(=O)Nc1cccc(C#Cc2ccc(C(=O)O)cc2)c1', 'logD', 2.38),
  ('CCOC(=O)c1cn2ccc(-c3noc([C@H]4CCCCN4C(=O)COc4ccccc4)n3)cc2n1', 'logD', 2.92);

Next compound, logD to be filled in.
Ask: Name the recorded logD of the item `NC(=O)c1cccc(-c2noc([C@H]3CCCCN3C(=O)COc3ccccc3)n2)c1` in your answer.
Result: 2.57
